- experimentalTarget: Phosphatidylinositol 4-kinase beta (Homo sapiens) (UniProt Q9UBF8);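 also: values given are mean percent inhibition of PI4K-beta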
- Sequence (Q9UBF8 2-816 limits assumed): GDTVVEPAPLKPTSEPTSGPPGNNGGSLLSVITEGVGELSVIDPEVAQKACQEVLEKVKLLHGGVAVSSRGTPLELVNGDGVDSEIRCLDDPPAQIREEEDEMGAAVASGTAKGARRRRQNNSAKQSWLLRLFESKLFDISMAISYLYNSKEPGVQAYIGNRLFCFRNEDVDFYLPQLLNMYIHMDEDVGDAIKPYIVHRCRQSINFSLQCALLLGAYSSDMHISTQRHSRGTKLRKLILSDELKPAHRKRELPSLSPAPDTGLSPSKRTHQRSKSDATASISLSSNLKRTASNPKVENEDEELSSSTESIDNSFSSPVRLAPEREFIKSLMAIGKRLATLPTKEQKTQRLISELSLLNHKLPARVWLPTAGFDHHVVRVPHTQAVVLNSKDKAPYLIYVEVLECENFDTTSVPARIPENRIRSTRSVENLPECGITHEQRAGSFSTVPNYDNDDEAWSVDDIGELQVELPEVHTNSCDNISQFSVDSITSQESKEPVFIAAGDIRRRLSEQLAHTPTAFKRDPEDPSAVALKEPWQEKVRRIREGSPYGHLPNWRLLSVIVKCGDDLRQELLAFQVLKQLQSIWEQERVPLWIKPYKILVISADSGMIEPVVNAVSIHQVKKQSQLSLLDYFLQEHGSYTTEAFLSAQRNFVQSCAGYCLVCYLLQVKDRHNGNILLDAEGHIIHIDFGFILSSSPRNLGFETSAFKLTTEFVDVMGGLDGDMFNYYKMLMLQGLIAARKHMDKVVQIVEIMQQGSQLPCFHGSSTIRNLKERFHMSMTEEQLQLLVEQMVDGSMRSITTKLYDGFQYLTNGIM
- assayConditions: at 0.1 µM
observedProperty: inhibition (%)
Kindly answer with a numeric value in %, unit omitted.

NS(=O)(=O)c1ccc(N/N=C2\C(=O)Nc3ccc(C(=O)NCCc4c[nH]cn4)cc32)cc1	-6.38
O=C1NC(=O)C(c2ccc(Cl)cc2)=C1Nc1ccc(Cl)c(C(=O)O)c1	-1.72
O=C(Nc1n[nH]c2nc(-c3ccco3)c(Br)cc12)C1CC1	0.77
CCCN1CCC(Oc2cc(Nc3nc(Nc4cccc(F)c4C(N)=O)c4cc[nH]c4n3)c(OC)cc2Cl)CC1	3.96

Req: Dear colleague, I am looking for the recorded inhibition of the following compound: `COc1cccc(-n2ncc3c(N/N=C/c4cccc(F)c4)ncnc32)c1`
Resp: 2.02

---

- experimentalTarget: 5'-AMP-activated protein kinase catalytic subunit alpha-1 (Homo sapiens);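 also: mean percent inhibition of the AMPK A1B1G1 complex (alpha1 beta1 gamma1) in the GSK PKIS kinase inhibitor screen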
- assayConditions: at 1 µM
observedProperty: inhibition (%)
Could you give me the number in %? Just the number is fine.

Solved entries (count: 9):
COc1ccc(COc2ccc(Cc3cnc(N)nc3N)cc2OC)cc1	-0.28
O=C1Nc2ccc(C(=O)c3ccco3)cc2C1=Cc1cc(Cl)c(O)c(Cl)c1	21.4
CC1=C(C(=O)Nc2ccc3[nH]ncc3c2)C(c2ccc(F)cc2)NC(=O)N1 (stereo not given)	20.4
COC(=O)Nc1nc2cc(Oc3cccc(NC(=O)Nc4cc(C(F)(F)F)ccc4F)c3)ccc2[nH]1	0.51
CN(C)c1cc2c(Nc3ccc4nc(Cc5ccccc5)[nH]c4c3)ncnc2cn1	3.22
Cc1cc(O)cc(C)c1/C=C/c1cncc(-c2nn[nH]n2)c1	3.56
Fc1cccc(COc2ccc(Nc3ncnc4sc(-c5cccs5)cc34)cc2Cl)c1	0.48
Nc1ncnc2occ(-c3ccc(NC(=O)Nc4cc(C(F)(F)F)cc(C(F)(F)F)c4)cc3)c12	0.27
CCn1c(-c2nonc2N)nc2cncc(C(=O)N3CC[C@H](N)C3)c21	6.61

Query compound follows.
Req: What does the record list as inhibition for `CC(=O)Nc1cccc(C#Cc2cncnc2Nc2ccc(OCc3cccc(F)c3)c(Cl)c2)n1` ?
Resp: 3.32

---

As shown below, each of these molecules has a reported inhibition value.
- experimentalTarget: Serine/threonine-protein kinase B-raf (Homo sapiens);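 also: mean percent inhibition of BRAF kinase activity, from the GSK PKIS kinase inhibitor screening set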
- assayConditions: at 0.1 µM
Kindly format the answer as number then unit.

COC(=O)Nc1nc2cc(Oc3ccc(NC(=O)Nc4cccc(C(=O)O)c4)cc3)ccc2[nH]1	-0.5%
COc1ccc(COc2ccc(Cc3cnc(N)nc3N)cc2OC)cc1	-1.31%
Cc1ccc(NC(=O)c2ccnc(N3CCCC3)c2)cc1-c1ccc(C(=O)NCC2CC2)cc1	8.24%

Shifting focus to the molecule that follows.
Req: Record request: inhibition value, item CC1=C(C(=O)Nc2ccc3[nH]ncc3c2)C(c2ccc3ccccc3c2)CC(=O)N1 (centres undefined)
Resp: 8.21%

---

Item-by-item account of inhibition
- experimentalTarget: Serine/threonine-protein kinase 26 (Homo sapiens) (UniProt Q9P289)
- Sequence (Q9P289 2-416 limits assumed): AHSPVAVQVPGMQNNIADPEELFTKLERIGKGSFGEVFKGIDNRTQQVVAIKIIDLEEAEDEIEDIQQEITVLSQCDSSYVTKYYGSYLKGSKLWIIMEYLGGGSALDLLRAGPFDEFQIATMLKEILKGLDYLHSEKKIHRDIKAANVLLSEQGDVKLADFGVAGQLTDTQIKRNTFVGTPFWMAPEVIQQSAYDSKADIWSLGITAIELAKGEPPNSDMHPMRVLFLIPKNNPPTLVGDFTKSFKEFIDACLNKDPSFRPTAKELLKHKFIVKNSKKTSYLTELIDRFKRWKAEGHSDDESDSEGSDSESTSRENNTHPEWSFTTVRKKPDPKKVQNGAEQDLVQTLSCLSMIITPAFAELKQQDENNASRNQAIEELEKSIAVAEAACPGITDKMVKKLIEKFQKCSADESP
- assayConditions: at 0.1 µM
- Description: GSK_PKIS: MST4 mean inhibition at 0.1 uM [Nanosyn]
Use % as the unit, but write only the number.

CN(C)c1cc2c(Nc3ccc4nc(Cc5ccccc5)[nH]c4c3)ncnc2cn1	-1.17

Req: # input compound: `Cn1cc(C=C2C(=O)Nc3cccnc32)c2ccccc21` ; wanted: its inhibition
Resp: 1.41

Req: inhibition for COc1ccc2cc(-c3c(-c4ccncc4)nc(-c4ccc([S+](C)[O-])cc4)n3C)ccc2c1 (stereo not given) ?
Resp: -0.63

Req: Tell me the measured inhibition of `COC(=O)Nc1nc2cc(Oc3ccc(NC(=O)Nc4cccc(C(=O)O)c4)cc3)ccc2[nH]1` , please.
Resp: 1.75

Req: May I ask what inhibition has been recorded for `Cc1cc(O)cc(C)c1/C=C/c1cncc(-c2nn[nH]n2)c1` ?
Resp: -1.84

---

- experimentalTarget: Mitogen-activated protein kinase 12 (Homo sapiens) (UniProt P53778);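 also: values are averaged p38gamma kinase inhibition readings, compounds tested at 1 µM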
- Sequence (P53778 whole entry): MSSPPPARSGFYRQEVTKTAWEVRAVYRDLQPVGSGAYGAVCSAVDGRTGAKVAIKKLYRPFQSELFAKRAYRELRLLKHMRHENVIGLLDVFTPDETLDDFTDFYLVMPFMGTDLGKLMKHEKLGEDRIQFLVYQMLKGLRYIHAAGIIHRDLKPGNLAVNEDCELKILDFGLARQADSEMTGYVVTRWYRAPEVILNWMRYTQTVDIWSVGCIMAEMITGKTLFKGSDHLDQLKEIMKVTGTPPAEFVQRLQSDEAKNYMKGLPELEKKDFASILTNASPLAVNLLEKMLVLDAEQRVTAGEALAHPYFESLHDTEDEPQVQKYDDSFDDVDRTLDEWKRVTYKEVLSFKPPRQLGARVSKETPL
- assayConditions: at 1 µM
observedProperty: inhibition (%)
Write the value in % as a bare number.

Would you please look over these solved cases?
O=C1NC(=O)C(c2ccc(Cl)cc2)=C1Nc1ccc(Cl)c(C(=O)O)c1	-2.21
CCn1c(-c2nonc2N)nc2cnc(Oc3cccc(NC(=O)c4ccc(OCCN5CCOCC5)cc4)c3)cc21	3.67
Cc1nnc(-c2ccc(C)c(-c3ccc(C(=O)Nc4cccc(C#N)c4)cc3)c2)o1	1.19
CS(=O)(=O)CCNCc1ccc(-c2ccc3ncnc(Nc4ccc(OCc5ccccc5)c(Cl)c4)c3c2)o1	6.3
CCn1c(-c2nonc2N)nc2cncc(C(=O)N3CC[C@H](N)C3)c21	3.17

Req: I have this molecule here, `CCc1cccc(NC(=O)Nc2ccc(Oc3ccc4nc(NC(=O)OC)[nH]c4c3)cc2)c1` , and I need its recorded inhibition.
Resp: 1.54

Req: For `Cc1nn(C)c2cc(N(C)c3ccnc(Nc4cccc(S(N)(=O)=O)c4)n3)ccc12` , what is its reported inhibition?
Resp: 2.2

Req: What value of inhibition has been recorded for this entry: `Nc1ncnc2occ(-c3ccc(NC(=O)Nc4cccc(C(F)(F)F)c4)cc3)c12`
Resp: 37.5

Req: Param item = CC1=C(C(=O)Nc2ccc3[nH]ncc3c2)C(c2ccc3ccccc3c2)CC(=O)N1 (centres undefined) ; retrieve measured inhibition.
Resp: 1.97

---

- experimentalTarget: Hepatocyte growth factor receptor (Homo sapiens);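 also: each value is an averaged inhibition figure for MET, taken as the mean across measurements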
- assayConditions: at 1 µM
Returns rule met if the recorded inhibition is greater than or equal to 20%, and rule not met otherwise.

Cc1nn(C)c2cc(N(C)c3ccnc(Nc4cccc(S(N)(=O)=O)c4)n3)ccc12	rule met
O=C(Nc1n[nH]c2nc(-c3ccco3)c(Br)cc12)C1CC1	rule not met
[O-][S+]1CCN(Cc2ccc(-c3ccc4ncnc(Nc5ccc(OCc6ccccc6)c(F)c5)c4c3)o2)CC1	rule not met
c1cnn2ncc(-c3ccnc(Nc4ccc5c(c4)OCCO5)n3)c2c1	rule not met

Now turn to the next compound.
Req: Has CC1=C(C(=O)Nc2ccc3[nH]ncc3c2)C(c2ccc(Cl)c(Cl)c2)CC(=O)N1 (stereo not given) a recorded inhibition greater than or equal to 20%?
Resp: rule not met

---

- experimentalTarget: Homeodomain-interacting protein kinase 1 (Homo sapiens) (UniProt Q86Z02)
- Sequence (Q86Z02 whole entry, looked up): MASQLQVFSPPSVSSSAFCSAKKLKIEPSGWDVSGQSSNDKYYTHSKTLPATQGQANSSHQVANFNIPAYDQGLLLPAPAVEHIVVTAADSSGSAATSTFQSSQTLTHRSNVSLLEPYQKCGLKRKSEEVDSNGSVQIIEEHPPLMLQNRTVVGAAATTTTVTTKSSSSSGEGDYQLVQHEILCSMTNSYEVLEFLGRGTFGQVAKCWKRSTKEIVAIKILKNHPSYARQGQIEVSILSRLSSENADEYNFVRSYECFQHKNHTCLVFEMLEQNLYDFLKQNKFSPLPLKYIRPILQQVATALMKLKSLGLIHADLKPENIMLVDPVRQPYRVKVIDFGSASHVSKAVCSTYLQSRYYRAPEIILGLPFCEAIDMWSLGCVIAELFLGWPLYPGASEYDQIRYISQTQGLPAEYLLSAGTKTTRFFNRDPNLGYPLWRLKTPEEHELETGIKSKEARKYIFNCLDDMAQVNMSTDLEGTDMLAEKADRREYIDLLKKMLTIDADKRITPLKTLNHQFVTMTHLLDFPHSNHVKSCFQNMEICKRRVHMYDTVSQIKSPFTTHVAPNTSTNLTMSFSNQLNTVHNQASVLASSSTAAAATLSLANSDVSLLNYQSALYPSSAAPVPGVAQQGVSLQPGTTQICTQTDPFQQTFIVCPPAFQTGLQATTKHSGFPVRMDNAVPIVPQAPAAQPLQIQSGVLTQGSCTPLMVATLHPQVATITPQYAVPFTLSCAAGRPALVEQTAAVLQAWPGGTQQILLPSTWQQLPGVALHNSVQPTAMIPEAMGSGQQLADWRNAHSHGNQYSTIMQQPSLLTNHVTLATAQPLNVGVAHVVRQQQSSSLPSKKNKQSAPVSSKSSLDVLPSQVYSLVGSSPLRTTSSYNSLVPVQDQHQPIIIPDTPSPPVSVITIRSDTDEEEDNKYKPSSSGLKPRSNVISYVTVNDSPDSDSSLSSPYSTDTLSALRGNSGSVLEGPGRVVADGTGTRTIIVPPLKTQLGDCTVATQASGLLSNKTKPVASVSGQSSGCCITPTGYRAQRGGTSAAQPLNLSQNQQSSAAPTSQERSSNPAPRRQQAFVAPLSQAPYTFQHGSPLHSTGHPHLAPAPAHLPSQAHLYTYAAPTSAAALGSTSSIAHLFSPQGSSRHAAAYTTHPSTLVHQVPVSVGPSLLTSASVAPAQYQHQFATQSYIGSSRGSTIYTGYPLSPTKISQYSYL
- assayConditions: at 0.1 µM
observedProperty: inhibition (%)
Give the value in % but do not write % after it.

CS(=O)(=O)CCNCc1ccc(-c2ccc3ncnc(Nc4ccc(OCc5cccc(F)c5)c(C(F)(F)F)c4)c3c2)o1	-1.8

Req: GET /values?readout=inhibition&system=Homeodomain-interacting protein kinase 1 (Homo sapiens) (UniProt Q86Z02)&item= `O=C1Nc2ccc(C(=O)c3ccco3)cc2C1=Cc1cc(Cl)c(O)c(Cl)c1`
Resp: 14

Req: Find the measured inhibition: item `CC(C)=Cc1cccc2c1/C(=N/Nc1ccc(S(N)(=O)=O)cc1)C(=O)N2` , target or system Homeodomain-interacting protein kinase 1 (Homo sapiens) (UniProt Q86Z02).
Resp: 2.49

Req: Give Homeodomain-interacting protein kinase 1 (Homo sapiens) (UniProt Q86Z02) inhibition for `CCCN1CCC(Oc2cc(Nc3nc(Nc4cccc(F)c4C(N)=O)c4cc[nH]c4n3)c(OC)cc2Cl)CC1`
Resp: 2.76

Req: Field: inhibition (Homeodomain-interacting protein kinase 1 (Homo sapiens) (UniProt Q86Z02)). Entry: `O=C1NC(=O)C(c2cccc(Cl)c2)=C1Nc1ccc(O)c(Cl)c1`
Resp: -2.68

Req: Item: `Nc1ncnc2occ(-c3ccc(NC(=O)Nc4cccc(C(F)(F)F)c4)cc3)c12` Test system: Homeodomain-interacting protein kinase 1 (Homo sapiens) (UniProt Q86Z02) Read-out: inhibition Value: ?
Resp: 5.73

Req: Please provide the recorded inhibition for `NS(=O)(=O)c1cccc(-c2ccc3c(NC(=O)C4CC4)n[nH]c3c2)c1` , tested on Homeodomain-interacting protein kinase 1 (Homo sapiens) (UniProt Q86Z02).
Resp: -0.23

Req: Item: `CCn1c(-c2nonc2N)nc2c(N3CCCC3)nccc21` Test system: Homeodomain-interacting protein kinase 1 (Homo sapiens) (UniProt Q86Z02) Read-out: inhibition Value: ?;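 also: each value is a mean percent inhibition of HIPK1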
Resp: -0.15

Req: What measured inhibition is associated with CC1=C(C(=O)Nc2ccc3[nH]ncc3c2)C(c2ccc(Cl)c(Cl)c2)CC(=O)N1 (centres undefined) on Homeodomain-interacting protein kinase 1 (Homo sapiens) (UniProt Q86Z02)?
Resp: 0.46

---

- experimentalTarget: Serine/threonine-protein kinase Nek2 (Homo sapiens) (UniProt P51955);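 also: mean inhibition value from the GSK PKIS kinase screening panel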
- Sequence (P51955 whole entry): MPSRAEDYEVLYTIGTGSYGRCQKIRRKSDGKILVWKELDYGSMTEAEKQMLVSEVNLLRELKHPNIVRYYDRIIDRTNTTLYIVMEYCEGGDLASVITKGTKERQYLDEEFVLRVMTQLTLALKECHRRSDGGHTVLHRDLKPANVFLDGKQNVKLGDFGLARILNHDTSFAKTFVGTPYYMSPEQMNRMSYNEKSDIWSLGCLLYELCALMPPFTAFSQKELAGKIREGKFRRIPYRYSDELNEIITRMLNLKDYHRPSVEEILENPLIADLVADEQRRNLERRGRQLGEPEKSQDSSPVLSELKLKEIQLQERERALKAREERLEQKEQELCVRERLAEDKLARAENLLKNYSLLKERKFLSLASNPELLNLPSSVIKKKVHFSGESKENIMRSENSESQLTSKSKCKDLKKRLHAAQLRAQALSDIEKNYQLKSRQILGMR
- assayConditions: at 0.1 µM
Overview of recorded inhibition for various molecules
Dear colleague, please return just the value in %, with no unit written.

Nc1nc(-c2ccccn2)c(-c2ccc3ncccc3n2)s1	3.61
COc1cc2ncn(-c3cc(OCc4ccccc4C(F)(F)F)c(C(N)=O)s3)c2cc1OC	6.41
COC(=O)Nc1nc2cc(Oc3ccc(NC(=O)Nc4cccc(C(=O)O)c4)cc3)ccc2[nH]1	-0.46
N#Cc1c(NC(=O)c2cccc3ccccc23)sc2c1CCCC2	3.93

Shift focus to the following entry.
Req: Consider the molecule shown here: `CS(=O)(=O)CCNCc1ccc(-c2ccc3ncnc(Nc4ccc(OCc5ccccc5)c(Cl)c4)c3c2)o1` What is its recorded inhibition?
Resp: 1.61
